# Test system: CP192
# assaySummary: qHTS profiling for inhibitors of Plasmodium falciparum proliferation (AID 504749); further: nearly all actives have a fitted effect of over 60% in size
# conditionParameters: P. falciparum in erythrocytes, SYBR Green DNA, 72 h; series mostly up to 28.7 µM
Records with an inconclusive call do not appear. Calls of active or inactive are those of the source. The call rests on the fitted dose curve; in most records, active means well fitted inhibition curve with a large enough effect; inconclusive means small, poorly fitted or top-dose-only effect; inactive means flat fitted curve, though single readings scatter.
Hi! Could you answer with just one of these? active, inactive

Sample answers from the record:
# compound, measurementTarget, assignedClass
measured = [
    ("O=NN(CCCl)C(=O)NC1CCCCC1", "CP192", "inactive"),
    ("CCn1cc(C(=O)O)c(=O)c2cc(F)c(N3CCN(C)CC3)cc21", "CP192", "inactive"),
    ("CN(C)c1ccc(C(=C2C=CC(=[N+](C)C)C=C2)c2ccc(N(C)C)cc2)cc1", "CP192", "active"),
    ("CCC(C)(C)c1ccc(CC(C)CN2C[C@@H](C)O[C@@H](C)C2)cc1 (stereo partly specified)", "CP192", "inactive"),
    ("CCn1cc(C(=O)O)c(=O)c2cc(F)c(N3CCNCC3)nc21", "CP192", "inactive"),
]

Recorded call for CNC1CCCN(c2c(F)cc3c(=O)c(C(=O)O)cn(C4CC4)c3c2OC)C1 (stereo unspecified) ?
inactive

Recorded call for CCc1cc(C(N)=S)ccn1 ?
inactive

Recorded call for COc1ncnc(NS(=O)(=O)c2ccc(N)cc2)c1OC ?
inactive

Recorded call for O=S(=O)(O)CCS ?
inactive

Recorded call for Cc1cccc(Nc2ccncc2S(=O)(=O)NC(=O)NC(C)C)c1 ?
inactive

Recorded call for COc1ccc(C(=O)CC(=O)c2ccc(C(C)(C)C)cc2)cc1 ?
inactive

Recorded call for Cc1cccc(N(C)C(=S)Oc2ccc3ccccc3c2)c1 ?
inactive

Recorded call for N[C@@H](Cc1ccc(O)c(O)c1)C(=O)O ?
inactive

Recorded call for CCOC(=O)c1ccc(OC(=O)CCCCCN=C(N)N)cc1 ?
inactive

Recorded call for CC(C)NCC(O)c1ccc(NS(C)(=O)=O)cc1 (stereo unspecified) ?
inactive

Recorded call for S=P(N1CC1)(N1CC1)N1CC1 ?
inactive

All figures here come from PubChem BioAssay (NCATS).
